- Tested Target: human ANO6 (Homo sapiens)
- Construct: expressed in transfected cells
- Sequence (Q4KMQ2 1-931 isoform Q4KMQ2-2): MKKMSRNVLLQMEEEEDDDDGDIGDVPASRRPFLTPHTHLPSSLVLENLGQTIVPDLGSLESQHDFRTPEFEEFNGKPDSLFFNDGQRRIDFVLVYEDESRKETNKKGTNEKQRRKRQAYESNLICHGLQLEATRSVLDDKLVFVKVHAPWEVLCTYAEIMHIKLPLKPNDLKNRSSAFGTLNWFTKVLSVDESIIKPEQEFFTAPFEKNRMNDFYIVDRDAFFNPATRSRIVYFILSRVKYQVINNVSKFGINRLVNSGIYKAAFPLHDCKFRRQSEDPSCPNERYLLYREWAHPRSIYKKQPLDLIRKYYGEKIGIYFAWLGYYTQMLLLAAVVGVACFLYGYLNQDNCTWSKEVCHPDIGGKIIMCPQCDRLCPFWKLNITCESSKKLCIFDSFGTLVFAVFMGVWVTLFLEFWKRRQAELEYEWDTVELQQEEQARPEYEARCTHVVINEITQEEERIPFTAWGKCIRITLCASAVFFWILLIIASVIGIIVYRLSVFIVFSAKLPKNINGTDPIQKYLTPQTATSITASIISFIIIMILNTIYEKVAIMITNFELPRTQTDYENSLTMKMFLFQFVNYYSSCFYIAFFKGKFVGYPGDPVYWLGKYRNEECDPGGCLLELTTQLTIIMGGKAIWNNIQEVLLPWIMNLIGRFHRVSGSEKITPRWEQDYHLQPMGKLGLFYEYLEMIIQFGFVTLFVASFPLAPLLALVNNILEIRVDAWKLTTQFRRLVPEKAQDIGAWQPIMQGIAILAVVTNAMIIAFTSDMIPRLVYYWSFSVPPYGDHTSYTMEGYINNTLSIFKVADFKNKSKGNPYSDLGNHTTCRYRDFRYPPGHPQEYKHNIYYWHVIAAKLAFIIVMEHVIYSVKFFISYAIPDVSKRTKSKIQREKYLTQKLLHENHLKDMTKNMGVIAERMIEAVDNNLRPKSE
- Protocol Text: LACT C2 assay (phosphatidylserine scramblase function assay)
- Format: cell-based
- Test Context: test compound 1 μM, FRT cells expressing human ANO6, 10 μM ionomycin, read-out: Inhibition Level 1 μM
Would you kindly list inhibition at 1 µM for each of these molecules?

Consider the worked cases shown below.
{"Molecule": "Cc1ccc(CNC(=O)c2cccc(Nc3cnc(-c4cccc(F)c4)cn3)c2)o1 [Compound 58]", "inhibition at 1 µM": "< 30%"}
{"Molecule": "O=C(NC1CCN(Cc2ccccc2)CC1)c1cccc(Nc2ncc(-c3ccccc3)cn2)c1 [Compound 120]", "inhibition at 1 µM": "< 30%"}
{"Molecule": "CC(CCc1ccccc1)NC(=O)c1cccc(Nc2ccc(-c3ccccc3)nn2)c1 (centres unmarked) [Compound A58]", "inhibition at 1 µM": "< 30%"}
{"Molecule": "CN(CCCNC(=O)c1cccc(Nc2ccc(-c3ccccc3)nn2)c1)Cc1ccccc1 [Compound A95]", "inhibition at 1 µM": "30 to 60%"}
{"Molecule": "Cc1c(C2CC2NC(=O)c2cccc(Nc3ncc(-c4ccccc4)cn3)c2)cnn1C (centres unmarked) [Compound 152]", "inhibition at 1 µM": "< 30%"}
{"Molecule": "O=C(O)c1cccc(CCNC(=O)c2cccc(Nc3ncc(-c4cccc(F)c4)cn3)c2)c1 [Compound 129]", "inhibition at 1 µM": "< 30%"}
{"Molecule": "Cc1ccc(CNC(=O)c2cccc(Nc3ccc(-c4ccc(F)cc4)nn3)c2)cc1 [Compound A22]", "inhibition at 1 µM": "< 30%"}
{"Molecule": "O=C(NCc1ccc(C(F)(F)F)cc1C(F)(F)F)c1cccc(Nc2ncc(-c3cccc(F)c3)cn2)c1 [Compound 208]", "inhibition at 1 µM": "30 to 60%"}

Parameters: items (list). Returns: inhibition at 1 µM for each item.
1. O=C(N[C@@H]1C[C@H]1c1ccccc1)c1cccc(Nc2ccc(-c3ccccc3)cn2)c1 [Compound 115]
2. O=C(N[C@@H]1C[C@H]1c1ccccc1)c1cccc(Nc2ncc(-c3ccccc3)cn2)c1 [Compound 117]
3. CC(C)CCNC(=O)c1cccc(Nc2ccc(-c3ccc(F)cc3)nn2)c1 [Compound A13]
4. O=C(Nc1cccc(F)c1)c1cccc(Nc2nnc(-c3ccccc3)o2)c1 [Compound 158]
5. O=C(N[C@@H]1C[C@H]1c1ccccc1)c1cncc(Nc2ncc(-c3ccccc3)cn2)c1 [Compound 156]
6. O=C(NC1CCN(Cc2ccccc2)CC1)c1cccc(Nc2ccc(-c3ccccc3)nn2)c1 [Compound A73]
7. COc1cccc(CCNC(=O)c2cccc(Nc3ncc(-c4cccc(F)c4)cn3)c2)c1 [Compound 78]

OUTPUT:
1: ≥ 60%; 2: < 30%; 3: 30 to 60%; 4: < 30%; 5: 30 to 60%; 6: 30 to 60%; 7: ≥ 60%

Parameters: items (list). Returns: inhibition at 1 µM for each item.
1. CC(C)c1ccc(CNC(=O)c2cccc(Nc3ccc(-c4ccc(F)cc4)nn3)c2)cc1 [Compound A36]
2. O=C(NCc1ccsc1)c1cccc(Nc2ccc(-c3ccccc3)nn2)c1 [Compound 44]

OUTPUT:
1. < 30%
2. < 30%
